biological target: AgSla1-D3; experiment: SPOT peptide array binding signal intensity (averaged, normalized) (arbitrary units (background-subtracted, floor 0; scale differs between SH3 domains)); higher = stronger binding of the SH3 domain to the peptide
READOUT LABEL: SPOT peptide array binding signal intensity
Give your answer as a number; write no unit.

query: Report SPOT peptide array binding signal intensity, nothing else, for this binder: `PPPPPPPPPPLPQSL`
result: 1.5

query: Report SPOT peptide array binding signal intensity, nothing else, for this binder: `NQARKPFLLPATELS`
result: 0.5

query: Report SPOT peptide array binding signal intensity, nothing else, for this binder: `SRQAIPPPVPNRPGG`
result: 3.5

query: Report SPOT peptide array binding signal intensity, nothing else, for this binder: `NRLRKRLNLPSEISI`
result: 5.5

query: Report SPOT peptide array binding signal intensity, nothing else, for this binder: `DKKTKPTPPPKPSHL`
result: 2
